Data origin: patent US5654427A

tested on: trkA (Rattus norvegicus, UniProt P35739)
Construct: are rat pheochromocytoma cells that bear trkA; host or cells: PC12 rat pheochromocytoma cells
Sequence (P35739 33-799): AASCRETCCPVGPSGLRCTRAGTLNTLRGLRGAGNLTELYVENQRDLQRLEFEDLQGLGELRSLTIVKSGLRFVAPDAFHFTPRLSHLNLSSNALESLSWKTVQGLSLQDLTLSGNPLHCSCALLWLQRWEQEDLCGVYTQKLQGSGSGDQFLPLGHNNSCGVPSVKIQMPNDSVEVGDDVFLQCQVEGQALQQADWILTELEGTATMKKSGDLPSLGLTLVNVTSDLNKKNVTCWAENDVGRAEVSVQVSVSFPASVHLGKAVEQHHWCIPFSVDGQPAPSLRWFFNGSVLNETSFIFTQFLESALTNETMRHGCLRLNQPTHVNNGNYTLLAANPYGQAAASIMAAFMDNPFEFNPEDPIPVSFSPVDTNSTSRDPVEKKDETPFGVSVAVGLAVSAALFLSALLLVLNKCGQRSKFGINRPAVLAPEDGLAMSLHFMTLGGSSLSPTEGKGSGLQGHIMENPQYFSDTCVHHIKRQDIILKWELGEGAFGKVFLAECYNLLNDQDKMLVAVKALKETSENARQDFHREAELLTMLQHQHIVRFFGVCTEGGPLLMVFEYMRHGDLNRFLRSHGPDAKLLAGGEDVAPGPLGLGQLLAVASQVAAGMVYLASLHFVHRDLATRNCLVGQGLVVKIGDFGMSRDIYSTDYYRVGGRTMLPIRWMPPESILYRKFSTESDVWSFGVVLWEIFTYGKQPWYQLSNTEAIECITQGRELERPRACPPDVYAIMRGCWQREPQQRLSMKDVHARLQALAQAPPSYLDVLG
protocol details: inhibition of NGF-stimulated trk autophosphorylation (tyrosine phosphorylation) in PC12 cells, anti-phosphotyrosine Western blot
Type: cell-based
test settings: 100 nM compound, NGF, Western blot FIG. 1

compound	phosphorylation response (FIG. 1, spot)
CCNC(=O)C1(O)CC2OC1(C)n1c3ccccc3c3c4c(c5c6ccccc6n2c5c31)C(=O)NC4 (stereo not shown)	absent (no spot seen)
CC12OC(CC13CNC(=O)O3)n1c3ccccc3c3c4c(c5c6ccccc6n2c5c31)CNC4=O (stereo not shown)	absent (no spot seen)
